Just for reference, patent US20040167199A1 is where these values come from.

ASSAY_PROTOCOL: Pharmacokinetics after oral administration in female rats
CONDITION: rat, in vivo, 4 hours, 80 mg/kg oral in aqueous CMC, read-out: plasma concentration
MEASURED_PARAMETER: concentration at 4 h

- COc1ccc(C(CC(N)=O)N2Cc3ccccc3C2=O)cc1OC (racemic) [Racemic Compound]: 2980 ng/mL

* * *

ASSAY_PROTOCOL: Pharmacokinetics after oral administration in female rats
CONDITION: rat, in vivo, 2 hours, 80 mg/kg oral in aqueous CMC, read-out: plasma concentration
MEASURED_PARAMETER: concentration at 2 h (ng/mL)

- COc1ccc(C(CC(N)=O)N2Cc3ccccc3C2=O)cc1OC (racemic) [Racemic Compound]: 4120
